- measured-on: T1, murine CD300LB stably expressed on Jurkat cells (mouse, UniProt Q3U497 18-209)
- T1 construct: also called muCD300LB; mouse CD300LB
- T1 sequence: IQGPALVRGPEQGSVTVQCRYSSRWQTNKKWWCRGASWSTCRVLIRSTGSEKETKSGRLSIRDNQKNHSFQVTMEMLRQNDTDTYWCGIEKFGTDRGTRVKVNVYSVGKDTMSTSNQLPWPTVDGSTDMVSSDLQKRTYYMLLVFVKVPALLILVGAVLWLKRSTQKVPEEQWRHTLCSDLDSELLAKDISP
- procedure-text: flow cytometry, stable Jurkat cells, 10 ug/mL, isotype subtracted
measurement-name: gMFI (gMFI)
Give bare numbers, in gMFI.

Some solved cases for reference:
INSERT INTO results (binder, measurement_name, quantitative_readout) VALUES
  ('anti-CD300LB antibody CD-15 (antibody, V domains shown) VH: QIQLVQSGPELKKPGETVKISCQVSGYTFTDYSMHWLKQAPGKGLKWMAWINTETGESTYTDEFKGRFVFSLETSVRTAYLKINNLKNEDTATYFCGTYGSSYGMAYWGQGTSVTVSS VL: DIVLTQSPASLPVSLGQRATISCRASKSVSTSGSSYLHWYQQKPGQPPKLLIYLASKLESGVPARFRGSGSGTDFTLNIHPVEEEDAATYYCQHNREVPPTFGGGTKLEIK', 'gMFI', 4140),
  ('anti-CD300LB antibody CD-11 (antibody, V domains shown) VH: QIQLVQSGPEVKKPGETVKISCKASGYTLTDYSMHWVMQTPGTGLKWMAWMNTETGEPTYADDFKGRFAFSLETSAGTAYLQIDNLKNEDTATYFCATYGKSYGMKYWGQGTSVTVSS VL: DIVLTQSPPSLAVSLGQRATISCRATKSVSPYLHWYQQTPGQPPKLLIYLASNLDSGVPARFSGSGSGTDFTLNIHPVEEEDAATYYCQHNKELPPTFGGGTRLEIK', 'gMFI', 4660);

Let's switch to this binder now.
Summary for this binder, anti-CD300LB antibody CD-14 (antibody, V domains shown) VH: QIQLVQSGPELKKPGETVKISCKASGYTFTDYSLHWVKQTPEKNLKWMAWINTETGAPTYADDFKGRFAFSLETSSNTAYLLINNLKNEDTATYFCALTMVNYWGQGTTLTVSS VL: DIVMTQSQKFMSTSVGDRVSVTCKASQNVGIRVAWHQQKPGQSPKTLIYSTSYRYSGVPDRFTGSGSGTEFILTISNVQSEDLAEYFCQQYNSYPYTFGGGTKLEIK : gMFI is 9550

Numbers sourced from patent US20240254227A1.
